- target system: GSK3α (GST-full length GSK3α) (Homo sapiens (Human))
- Sequence (P49840 whole entry): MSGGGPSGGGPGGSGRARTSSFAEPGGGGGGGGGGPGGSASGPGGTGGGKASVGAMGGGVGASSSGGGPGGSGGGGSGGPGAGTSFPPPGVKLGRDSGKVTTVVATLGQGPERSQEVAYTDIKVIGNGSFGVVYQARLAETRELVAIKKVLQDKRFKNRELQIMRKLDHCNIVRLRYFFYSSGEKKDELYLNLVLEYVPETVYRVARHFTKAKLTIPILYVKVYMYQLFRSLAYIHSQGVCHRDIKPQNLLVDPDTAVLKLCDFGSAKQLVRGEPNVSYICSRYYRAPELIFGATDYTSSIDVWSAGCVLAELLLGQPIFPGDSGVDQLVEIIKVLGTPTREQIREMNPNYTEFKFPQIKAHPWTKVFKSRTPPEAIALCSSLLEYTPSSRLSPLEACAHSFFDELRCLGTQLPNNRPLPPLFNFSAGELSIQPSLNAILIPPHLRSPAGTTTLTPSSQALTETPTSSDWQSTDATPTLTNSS
- experimental details: GSK3α TR-FRET kinase assay
- Format: biochemical
- condition details: 1 nM GSK3α, 4 μM ATP, 30 minute preincubation; geometric mean; read-out: GSK3-A TR-FRET BIOCHEMICAL (TR-FRET); GMean; IC50
Property: IC50; scope: individual molecules

Below, 4 molecules whose answers are already recorded.
- CCC1(c2cccc(-c3ccncc3C)c2)C2=C(CC(C)(C)NC2=O)Nc2n[nH]c(C(F)(F)F)c21 (stereo not shown) [Compound 947814]: ≤ 0.1 µM
- CCC1(c2cccc(C(F)(F)F)c2)C2=C(Nc3n[nH]cc31)C(F)C(C)(C)CC2=O (single isomer, unassigned) [Compound 837646]: ≤ 0.1 µM
- CC(C)(C)Cc1[nH]nc2c1C1(CCc3c(F)cccc31)C1=C(CC(C)(C)CC1=O)N2 (stereo not shown): > 1.7 µM
- CCC1(c2cccc(C(C)C)c2)C2=C(CC(C)(C)CC2=O)Nc2n[nH]cc21 (stereo not shown): ≤ 0.1 µM

Incoming: Item: CCC1(c2cccc(C(F)F)c2)C2=C(CC(C)(C)NC2=O)Nc2n[nH]cc21 (stereo not shown) Test system: GSK3α (GST-full length GSK3α) (Homo sapiens (Human)) Read-out: IC50 Value: ?
Outgoing: ≤ 0.1 µM

Incoming: Request - read-out IC50 | tested on GSK3α (GST-full length GSK3α) (Homo sapiens (Human)) | molecule CC1(C)CC(=O)C2=C(C1)Nc1n[nH]c(Br)c1[C@]21CCc2c(F)cccc21
Outgoing: ≤ 0.1 µM

Incoming: Hi! What's the reported IC50 for CCC1(c2cccc(S(=O)(=O)C3CC3)c2)C2=C(CC(C)(C)NC2=O)Nc2n[nH]c(C(F)(F)F)c21 (stereo not shown) [Compound 948776] on GSK3α (GST-full length GSK3α) (Homo sapiens (Human))?
Outgoing: 0.1 to 1 µM
